Data provenance: a melting point compilation (Tetko et al.; mined from patent text by program, amines drawn as free bases though some values may be those of a salt)

# Lookup of reported melting point keyed by entry
Parameter Measured: melting point

>>> recorded_measurement("CCCCC(Cc1ccc(OCCNC(=O)c2ccc(-c3cc(C)c(OCOC)c(C)c3)cc2)cc1)C(=O)OCC (stereo unspecified)")
"70 to 71 °C"
>>> recorded_measurement("CC(C)(C)OC(=O)[C@H](NS(=O)(=O)c1ccc2c(Cl)cnc(Cl)c2c1)C(C)(C)C")
"140 to 142 °C"
>>> recorded_measurement("COC(=O)c1cccn2c(I)cnc12")
"99 to 110 °C"
>>> recorded_measurement("Fc1nc(NCc2ccncc2)c2nc[nH]c2n1")
"200 to 202 °C"
>>> recorded_measurement("C/C(Cl)=C/CC(C)(C(=O)O)C(=O)O")
"99 to 101 °C"
>>> recorded_measurement("OCCC(c1ccccc1)c1cc(Br)ccc1OCc1ccccc1 (stereo unspecified)")
"70 °C"

###

# Lookup of reported melting point keyed by entry
Parameter Measured: melting point

>>> recorded_measurement("CCN(C=C1C(=O)N(c2cccc(Cl)c2)c2ccccc21)CC")
"74 to 75.5 °C"
>>> recorded_measurement("O=C1NCCNC1c1cn(Cc2ccc(Cl)cc2)c2ccccc12 (stereo not given)")
"195 °C"
>>> recorded_measurement("CC(=O)Oc1cc(C(C)C)ccc1C1(OC(C)=O)C(=O)c2ccccc2C1=O")
"136 to 137 °C"
>>> recorded_measurement("CCNc1cccnc1N1CCN(C(=O)c2ccc(C(=O)O)cc2)CC1")
"208 to 209 °C"
>>> recorded_measurement("O=C(NC1CCC(CCN2CCC(c3cccc4c3CCO4)CC2)CC1)C1CC1(F)F (stereo not given)")
"199 °C"
>>> recorded_measurement("Cc1nc2n(C)ccn2c(=O)c1CCCl")
"198 °C"
>>> recorded_measurement("COC(=O)C[C@H](NC(=O)OCc1ccccc1)C(=O)O")
"55 to 60 °C"
>>> recorded_measurement("O=C1NC(C(=O)NCCCO[N+](=O)[O-])CS1 (stereo not given)")
"83 to 85 °C"
>>> recorded_measurement("COc1ccc(N2CCN(CCn3c(=O)[nH]c4sccc4c3=O)CC2)cc1")
"249 to 251 °C"
>>> recorded_measurement("O=C(Cn1c(=O)oc2ccc(Cl)cc21)c1ccc(C(F)(F)F)cc1")
"188 to 189 °C"

###

# Lookup of reported melting point keyed by entry
Parameter Measured: melting point

>>> recorded_measurement("CC1CNc2ccc(NC3=NCCN3)c(Br)c2N1 (centres undefined)")
"250 to 251 °C"
>>> recorded_measurement("O=C(O)c1[nH]c2cc(Cl)cc(Cl)c2c1NCS(=O)(=O)c1ccccc1")
"286 to 290 °C"
>>> recorded_measurement("O=C1O[C@@H](Cn2ccnn2)CN1c1ccc(-c2ccc(C3=NOC(CS(=O)(=O)CCO)C3)nc2)c(F)c1 (some centres undefined)")
"210 °C"
>>> recorded_measurement("COC(=O)c1ccccc1-c1cc(-c2ccc(OC)cc2)[nH]n1")
"92 to 93 °C"
>>> recorded_measurement("CC(C)c1nc2ccccn2c(=O)c1-c1ccc(NC2CCN(C(=O)OC(C)(C)C)C2)cc1 (centres undefined)")
"232 to 236 °C"
>>> recorded_measurement("O=C(C1COc2ccc([N+](=O)[O-])cc21)N1CCCCC1 (centres undefined)")
"108 to 114 °C"
>>> recorded_measurement("O=C(O)c1ccc(CCCC2SCC(=O)N2C/C=C\\C2(O)CCCCC2)cc1 (centres undefined)")
"118 to 120 °C"
>>> recorded_measurement("Cc1cccc(-c2nc3cccnn3c2-c2ccnc(NCC3CCCO3)c2)c1 (centres undefined)")
"137 to 138 °C"
>>> recorded_measurement("CN1CCC(Oc2cccc(C(=O)Nc3cc(NC(=O)c4ccc(C#N)cc4)ccc3Cl)c2)CC1")
"177 to 179 °C"
